Below: a set of entries, each annotated with reported growth.
# Tested on: UACC-62 melanoma
# assay: NCI-60 one-dose screen, 48 h (100 = growth as untreated, 0 = no growth, -100 = all killed)
# condition details: 10 µM unless noted
The panel holds about 83,000 compounds, 20% with a hit somewhere; the sample as a whole holds those more often.

# compound, uom, growth
rows = [
    ("O=C(CSc1nnc(-c2cnccn2)n1-c1ccccc1)c1ccc(Cl)cc1", "%", 84.9),
    ("O=C(OC(CO)C(=O)NC12CC3CC(CC(C3)C1)C2)c1ccc(Cl)cc1 (centres undefined)", "%", 96.6),
    ("COc1cc2c(cc1OC)C(C)N(S(N)(=O)=O)CC2 (centres undefined)", "%", 95.4),
    ("Cc1cn(-c2cc(NC(=O)c3cncc(C#Cc4cnc(N)c5ncccc45)c3)cc(C(F)(F)F)c2)cn1", "%", 35.2),
    ("C=C1C(=O)O[C@H]2[C@H]1CC/C(COC(=O)c1cc3ccccc3s1)=C\\CC[C@@]1(C)O[C@@H]21", "%", -61.1),
    ("CCCCC1=C(P(=O)(O)O)N[C@H](C(=O)O)CS1", "%", 85.1),
    ("Cn1cc(-c2csc(-c3c[nH]c4ccccc34)n2)c2cnccc21", "%", -52.7),
    ("CC(C)(Sc1cc(C(C)(C)C)c(O)c(C(C)(C)C)c1)Sc1cc(C(C)(C)C)c(OC(=O)CCCC(=O)O)c(C(C)(C)C)c1", "%", 26.1),
    ("O=c1c2cccc3c(N4CCCC4)ccc(c32)c2nc3ccccc3n12", "%", 62.6),
]

----------
# Tested on: IGROV1 ovarian
# assay: NCI-60 one-dose screen, 48 h
# condition details: 10 µM unless noted
This is part of a sample that, as a whole, favours compounds with a hit. Of some 83,000 tested, about 20% had one in any assay. Activity calls are given as the source filed them. How the source made its calls: active means growth percent below 10; inactive means the rest.
Possible outcomes: label 1 for active, label 0 for inactive

# molecule, cat
rows = [
    ("CC/C=C\\C[C@H](O)C/C=C1/C(=O)C=C[C@@H]1C/C=C\\CCCC(=O)N(C)C", "label 0"),
    ("Cc1nc2sc(C(=O)Nc3cccc(Br)c3)c(N)c2cc1C(O)c1ccccc1 (stereo not given)", "label 0"),
    ("CCOC(=O)c1c2c(n3cccc(F)c13)C(=O)c1ncccc1C2=O", "label 0"),
    ("C[C@@H](CO)[C@@H]1CCC=C2CC[C@]3(C)[C@H](CC[C@@H]4[C@@]5(C)CCCNC(C)(C)[C@@H]5CC[C@]43C)[C@H]21", "label 0"),
    ("NC(=O)c1ccc(-c2c3ccccc3cc3c2ccc2ccccc23)cc1", "label 0"),
    ("COc1ccc(NC(=O)c2sc3nc(C)c(C(=O)/C=C/c4ccccc4)cc3c2N)cc1", "label 0"),
    ("CC(C)c1ccc(-n2c(=S)[nH]c3sc4cc(O)ccc4c3c2=O)cc1", "label 0"),
    ("O=C1/C(=C/c2ccc([N+](=O)[O-])cc2)COc2ccc(O)cc21", "label 0"),
    ("COC(=O)c1c2c(c(C)[n+]([O-])c1C)C(=O)C(NCc1cccc(OC)c1)=CC2=O", "label 0"),
    ("CCN(C)S(=O)(=O)Nc1cccc(Nc2ncnc3cc(NC(=O)CCl)ccc23)c1Cl", "label 1"),
    ("COC1=CC(c2ccc[nH]2)=N/C1=C\\c1[nH]c(C)c(C(=O)OC(C)C)c1C", "label 1"),
    ("Cc1ccc(CNc2ccc3nc(CCC4CCCCC4)[nH]c3c2)cc1", "label 0"),
    ("C=CCc1c(O)c(C(=O)/C=C/c2ccccc2)c(OC)c2ccoc12", "label 0"),
    ("NC(=O)c1cccc(-n2ccc3cc(NC(=O)c4ccc(N5CCOCC5)c(C(F)(F)F)c4)ccc32)n1", "label 0"),
    ("COC(=O)c1c(C)c2n(c1C)C(=O)C(c1ccccc1)=C2", "label 1"),
    ("CCOc1ccccc1Cn1ccnc1CCc1c(Cl)c(O)cc(O)c1C(=O)OC", "label 0"),
    ("COc1ccc(Nc2ncc(Br)c(NCCCNC(=O)C3CCCC3)n2)cc1", "label 0"),
    ("CCCCCCC12CCC(=O)N1CCc1cncn12 (stereo not given)", "label 0"),
    ("Cc1csc(Nc2nc(-c3ccccn3)nc(C(Cl)(Cl)Cl)n2)n1", "label 0"),
    ("COc1ccc(C/C(C)=C(/c2ccc(OCCN(C)C)cc2)c2ccc(OC(=O)NCc3ccccc3)cc2)cc1", "label 0"),
]
